These entries and their values trace back to patent US20240209100A1.

tested_target: T1, IL-18 receptor (IL-18Rα/IL-18Rβ) overexpressed on HEK-Blue IL-18 cells (Homo sapiens (Human), UniProt Q13478 19-541; O95256 20-599)
T1 sequence 1: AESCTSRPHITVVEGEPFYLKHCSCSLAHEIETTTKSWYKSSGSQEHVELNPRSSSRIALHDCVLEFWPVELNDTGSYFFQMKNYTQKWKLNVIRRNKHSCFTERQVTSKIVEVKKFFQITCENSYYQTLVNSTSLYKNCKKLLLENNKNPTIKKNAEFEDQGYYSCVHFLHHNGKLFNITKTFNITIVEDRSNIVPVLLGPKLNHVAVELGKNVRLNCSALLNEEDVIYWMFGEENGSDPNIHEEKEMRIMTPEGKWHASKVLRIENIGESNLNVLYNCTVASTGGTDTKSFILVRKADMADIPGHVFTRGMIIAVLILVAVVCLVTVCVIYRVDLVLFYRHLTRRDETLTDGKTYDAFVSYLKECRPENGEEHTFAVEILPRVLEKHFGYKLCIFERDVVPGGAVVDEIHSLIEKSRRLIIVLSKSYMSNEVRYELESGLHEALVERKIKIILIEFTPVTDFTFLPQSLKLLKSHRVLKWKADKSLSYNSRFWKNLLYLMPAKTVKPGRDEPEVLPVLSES
T1 sequence 2: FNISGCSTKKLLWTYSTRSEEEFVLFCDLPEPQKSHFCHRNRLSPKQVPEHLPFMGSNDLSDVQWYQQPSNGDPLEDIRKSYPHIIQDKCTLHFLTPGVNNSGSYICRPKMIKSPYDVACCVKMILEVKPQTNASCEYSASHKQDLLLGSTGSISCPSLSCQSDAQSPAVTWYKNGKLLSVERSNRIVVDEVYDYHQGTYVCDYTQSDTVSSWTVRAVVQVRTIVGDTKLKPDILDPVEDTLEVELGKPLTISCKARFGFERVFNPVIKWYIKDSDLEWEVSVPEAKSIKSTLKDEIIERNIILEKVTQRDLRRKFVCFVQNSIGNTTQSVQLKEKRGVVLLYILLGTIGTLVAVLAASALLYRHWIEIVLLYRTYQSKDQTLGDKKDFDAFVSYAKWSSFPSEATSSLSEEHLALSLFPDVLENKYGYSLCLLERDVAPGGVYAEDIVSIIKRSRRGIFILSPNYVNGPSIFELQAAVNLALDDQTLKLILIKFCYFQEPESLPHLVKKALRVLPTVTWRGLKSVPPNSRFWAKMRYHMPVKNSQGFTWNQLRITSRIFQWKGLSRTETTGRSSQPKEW
run_description: cell-based or functional assay
endpoint_name: HEK-Blue IL-18: Abs 405

Fill in the blank: the reported HEK-Blue IL-18: Abs 405 of DGL319 (bispecific antibody, V domains shown) V domain 1: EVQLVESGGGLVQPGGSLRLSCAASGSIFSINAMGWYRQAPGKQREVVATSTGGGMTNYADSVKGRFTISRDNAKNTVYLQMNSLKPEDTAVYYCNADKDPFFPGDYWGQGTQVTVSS V domain 2: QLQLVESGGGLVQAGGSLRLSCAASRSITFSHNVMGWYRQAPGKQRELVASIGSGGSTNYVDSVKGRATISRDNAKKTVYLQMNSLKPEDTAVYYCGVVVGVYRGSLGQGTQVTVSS is ____.
2.88 Abs

Next entry: DGL250 (bispecific antibody, V domains shown) V domain 1: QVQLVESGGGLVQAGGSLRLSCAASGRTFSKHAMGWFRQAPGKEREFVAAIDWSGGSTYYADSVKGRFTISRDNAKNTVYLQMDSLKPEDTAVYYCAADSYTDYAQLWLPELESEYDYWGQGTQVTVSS V domain 2: QLQLVESGGGLVQPGGSLRLSCAAPGRIFGLNAMGWYRQAPGKQRELVASITTGGSTNYADSGKGRFTLSRSNAQNTVYRQMNSLQPEDTAVYYCNAKRGLNLNYWGQGTQVTVSS
0.49 Abs

What would you report for DGL301 (bispecific antibody, V domains shown) V domain 1: QVQLQESGGGLVQPGGSARLSCVASGIIFNDYHMGWYRQAPGKQRDLVAGITAGGSTTYADSVKGRFTISRDNAKHTVYLQMNNLSPEDTAVYYCNTFYNAILDWGKGTLVTVSS V domain 2: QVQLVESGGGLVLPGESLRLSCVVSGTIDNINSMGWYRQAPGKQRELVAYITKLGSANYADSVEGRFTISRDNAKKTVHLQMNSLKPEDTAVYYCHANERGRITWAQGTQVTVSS ?
0.66 Abs

# iterate: DGL322 (bispecific antibody, V domains shown) V domain 1: QVQLVESGGGLVQAGGSLRLSCAASGRTFSSYTMGWFRQAPGKEREFVAAISWSAGRTYYADSVKGRFTISRDNAKNTVYLQMNSLKPEDTAVYFCAAEEAPDWAPIDCSGYGCLSLYDYWGQGTQVTVSS V domain 2: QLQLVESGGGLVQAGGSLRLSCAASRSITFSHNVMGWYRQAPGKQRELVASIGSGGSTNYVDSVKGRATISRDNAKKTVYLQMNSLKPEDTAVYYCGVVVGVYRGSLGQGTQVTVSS
0.74 Abs

Param item: DGL295 (bispecific antibody, V domains shown) V domain 1: QVQLQESGGGLVQPGGSARLSCVASGIIFNDYHMGWYRQAPGKQRDLVAGITAGGSTTYADSVKGRFTISRDNAKHTVYLQMNNLSPEDTAVYYCNTFYNAILDWGKGTLVTVSS V domain 2: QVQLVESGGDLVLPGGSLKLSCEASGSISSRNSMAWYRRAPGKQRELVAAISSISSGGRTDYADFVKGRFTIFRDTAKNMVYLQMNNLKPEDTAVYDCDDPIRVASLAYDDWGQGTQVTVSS
0.46 Abs
